Please go through the items and note down their Ki.

Enquiry: Notebook entry, Cannabinoid receptor 1 (Homo sapiens) assay: Ki of "O=C(c1ccccc1)n1c2ccccc2c2nnc(SCc3ccccc3[N+](=O)[O-])nc21" = ?
Return: > 60 µM

Enquiry: Notebook entry, Cannabinoid receptor 1 (Homo sapiens) assay: Ki of "Fc1ccccc1CSc1nnc2c3ccccc3n(Cc3ccccc3)c2n1" = ?
Return: 0.275 µM

Enquiry: Notebook entry, Cannabinoid receptor 1 (Homo sapiens) assay: Ki of "N#Cc1ccccc1CSc1nnc2c3ccccc3n(C(=O)c3ccco3)c2n1" = ?
Return: > 10 µM

Enquiry: Notebook entry, Cannabinoid receptor 1 (Homo sapiens) assay: Ki of "N#Cc1ccccc1CSc1nnc2c3ccccc3n(C(=O)c3ccno3)c2n1" = ?
Return: > 60 µM

---

Entries with reported pKi on Cannabinoid receptor 2 (Homo sapiens)
For clarity, pKi is expressed as the negative log10 of concentration in mol/L.

Enquiry: Notebook entry, Cannabinoid receptor 2 (Homo sapiens) assay: pKi of "N#Cc1ccccc1CSc1nnc2c3ccccc3n(C(=O)c3ccco3)c2n1" = ?
Return: 6.31

Enquiry: Notebook entry, Cannabinoid receptor 2 (Homo sapiens) assay: pKi of "Fc1ccccc1CSc1nnc2c3ccccc3n(Cc3ccccc3)c2n1" = ?
Return: 6.67

Enquiry: Notebook entry, Cannabinoid receptor 2 (Homo sapiens) assay: pKi of "N#Cc1ccccc1CSc1nnc2c(n1)[nH]c1cccc(Br)c12" = ?
Return: 7.65

Enquiry: Notebook entry, Cannabinoid receptor 2 (Homo sapiens) assay: pKi of "N#Cc1ccccc1CSc1nnc2c3ccccc3n(C(=O)C3CCCCC3)c2n1" = ?
Return: 7.52

Enquiry: Notebook entry, Cannabinoid receptor 2 (Homo sapiens) assay: pKi of "O=C(c1ccccc1)n1c2ccccc2c2nnc(SCc3ccccc3[N+](=O)[O-])nc21" = ?
Return: 6.63

Enquiry: Notebook entry, Cannabinoid receptor 2 (Homo sapiens) assay: pKi of "N#Cc1ccccc1CSc1nnc2c(n1)[nH]c1ccccc12" = ?
Return: 6.45

Enquiry: Notebook entry, Cannabinoid receptor 2 (Homo sapiens) assay: pKi of "N#Cc1ccccc1CSc1nnc2c3ccccc3n(Cc3ccccc3)c2n1" = ?
Return: 7.96

Enquiry: Notebook entry, Cannabinoid receptor 2 (Homo sapiens) assay: pKi of "O=[N+]([O-])c1ccccc1CSc1nnc2c(n1)[nH]c1ccccc12" = ?
Return: 6.81

Enquiry: Notebook entry, Cannabinoid receptor 2 (Homo sapiens) assay: pKi of "N#Cc1ccccc1CSc1nnc2c3ccccc3n(Cc3ccccc3[N+](=O)[O-])c2n1" = ?
Return: 6.54

Enquiry: Notebook entry, Cannabinoid receptor 2 (Homo sapiens) assay: pKi of "N#Cc1ccccc1CSc1nnc2c3ccccc3n(C(=O)c3ccccc3)c2n1" = ?
Return: 6.52

Enquiry: Notebook entry, Cannabinoid receptor 2 (Homo sapiens) assay: pKi of "COC(=O)CCC(=O)n1c2ccccc2c2nnc(SCc3ccccc3C#N)nc21" = ?
Return: 6.44

Enquiry: Notebook entry, Cannabinoid receptor 2 (Homo sapiens) assay: pKi of "N#Cc1ccccc1CSc1nnc2c3ccccc3n(C(=O)C3CCCC3)c2n1" = ?
Return: 6.49

Enquiry: Notebook entry, Cannabinoid receptor 2 (Homo sapiens) assay: pKi of "N#Cc1ccccc1CSc1nnc2c3ccccc3n(C(=O)c3ccno3)c2n1" = ?
Return: 6.35

Enquiry: Notebook entry, Cannabinoid receptor 2 (Homo sapiens) assay: pKi of "N#Cc1ccccc1CSc1nnc2c3ccccc3n(C(=O)c3ccc(OC(F)(F)F)cc3)c2n1" = ?
Return: 6.42

---

Please go through the items and note down their solubility kinetic.
Test: Aqueous kinetic solubility of the compound at pH 7 at 37 degC by turbidimetric assay
Type: physicochemical
Details: read-out: Kinetic_solubility
Reply with just the number (in µM).

Enquiry: For the molecule shown here, "COC(=O)CCC(=O)n1c2ccccc2c2nnc(SCc3ccccc3C#N)nc21" , give the reported solubility kinetic.
Return: 3.75

Enquiry: For the molecule shown here, "N#Cc1ccccc1CSc1nnc2c(n1)[nH]c1ccccc12" , give the reported solubility kinetic.
Return: 3.75

Enquiry: For the molecule shown here, "N#Cc1ccccc1CSc1nnc2c3ccccc3n(C(=O)N3CCOCC3)c2n1" , give the reported solubility kinetic.
Return: 10.5

Enquiry: For the molecule shown here, "N#Cc1ccccc1CSc1nnc2c3ccccc3n(C(=O)c3ccccc3)c2n1" , give the reported solubility kinetic.
Return: 2

Enquiry: For the molecule shown here, "CCCCSc1nnc2c(n1)[nH]c1ccccc12" , give the reported solubility kinetic.
Return: 2

Enquiry: For the molecule shown here, "N#Cc1ccccc1CSc1nnc2c3ccccc3n(C(=O)c3ccno3)c2n1" , give the reported solubility kinetic.
Return: 6.5

Enquiry: For the molecule shown here, "COC(=O)CCCC(=O)n1c2ccccc2c2nnc(SCc3ccccc3C#N)nc21" , give the reported solubility kinetic.
Return: 3.75

---

Please go through the items and note down their EC50.
Target: Cannabinoid receptor 2 (Homo sapiens, UniProt P34972)
Sequence (P34972 whole entry): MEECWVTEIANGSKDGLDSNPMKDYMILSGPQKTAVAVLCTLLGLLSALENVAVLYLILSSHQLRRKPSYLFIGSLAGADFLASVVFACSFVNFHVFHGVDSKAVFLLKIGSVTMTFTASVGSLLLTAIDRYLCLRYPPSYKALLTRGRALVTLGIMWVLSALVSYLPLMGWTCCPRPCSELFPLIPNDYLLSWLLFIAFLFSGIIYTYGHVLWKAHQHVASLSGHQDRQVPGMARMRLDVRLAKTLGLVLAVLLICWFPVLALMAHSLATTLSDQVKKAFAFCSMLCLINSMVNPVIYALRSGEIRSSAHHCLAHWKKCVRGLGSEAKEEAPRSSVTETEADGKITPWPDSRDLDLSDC
Test: Agonist activity at human CB2R expressed in CHO cells assessed as reduction in forskolin-induced cAMP accumulation by beta-galactosidase based complementation immunoassay
Reply with just the number (in nM).

Enquiry: For the compound shown here, "O=[N+]([O-])c1ccccc1CSc1nnc2c(n1)[nH]c1cccc(Br)c12" , give the reported EC50.
Return: 37

Enquiry: For the compound shown here, "CCn1c2ccccc2c2nnc(SCc3ccccc3C#N)nc21" , give the reported EC50.
Return: 674

Enquiry: For the compound shown here, "N#Cc1ccccc1CSc1nnc2c3ccccc3n(C(=O)C3CCCCC3)c2n1" , give the reported EC50.
Return: 32

Enquiry: For the compound shown here, "N#Cc1ccccc1CSc1nnc2c3ccccc3n(Cc3ccccc3)c2n1" , give the reported EC50.
Return: 214

Enquiry: For the compound shown here, "N#Cc1ccccc1CSc1nnc2c3ccccc3n(C(=O)c3ccc(F)cc3)c2n1" , give the reported EC50.
Return: 57

Enquiry: For the compound shown here, "N#Cc1ccccc1CSc1nnc2c3ccccc3n(C(=O)c3ccco3)c2n1" , give the reported EC50.
Return: 46

Enquiry: For the compound shown here, "N#Cc1ccccc1CSc1nnc2c3ccccc3n(S(=O)(=O)c3ccccc3)c2n1" , give the reported EC50.
Return: 76

Enquiry: For the compound shown here, "CCCCSc1nnc2c(n1)[nH]c1ccccc12" , give the reported EC50.
Return: 296

---

Target: Cannabinoid receptor 1 (Homo sapiens, UniProt P21554)
Sequence (P21554 whole entry): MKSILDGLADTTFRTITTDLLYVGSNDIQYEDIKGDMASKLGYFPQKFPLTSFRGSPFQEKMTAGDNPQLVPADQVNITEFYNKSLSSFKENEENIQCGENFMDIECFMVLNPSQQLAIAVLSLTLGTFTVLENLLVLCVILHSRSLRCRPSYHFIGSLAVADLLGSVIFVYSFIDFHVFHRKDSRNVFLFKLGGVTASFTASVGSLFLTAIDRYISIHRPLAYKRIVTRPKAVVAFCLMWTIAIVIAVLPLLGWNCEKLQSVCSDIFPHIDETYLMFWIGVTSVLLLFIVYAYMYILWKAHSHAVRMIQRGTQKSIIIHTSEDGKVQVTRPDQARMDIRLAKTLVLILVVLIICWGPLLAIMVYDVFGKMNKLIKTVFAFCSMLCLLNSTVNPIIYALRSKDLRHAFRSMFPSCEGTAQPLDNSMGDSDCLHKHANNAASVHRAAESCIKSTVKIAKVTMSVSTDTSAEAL
Assay: Agonist activity at human CB1R expressed in CHO cells assessed as reduction in forskolin-induced cAMP accumulation by beta-galactosidase based complementation immunoassay
Please go through the items and note down their EC50.

Enquiry: For the compound shown here, "O=[N+]([O-])c1ccccc1CSc1nnc2c(n1)[nH]c1ccccc12" , give the reported EC50.
Return: > 30 µM

Enquiry: For the compound shown here, "N#Cc1ccccc1CSc1nnc2c3ccccc3n(Cc3ccccc3[N+](=O)[O-])c2n1" , give the reported EC50.
Return: > 30 µM

Enquiry: For the compound shown here, "c1ccc(CSc2nnc3c(n2)[nH]c2ccccc23)cc1" , give the reported EC50.
Return: > 30 µM

Enquiry: For the compound shown here, "N#Cc1ccccc1CSc1nnc2c(n1)[nH]c1cccc(Br)c12" , give the reported EC50.
Return: 20 µM

Enquiry: For the compound shown here, "N#Cc1ccccc1CSc1nnc2c3ccccc3n(Cc3ccccc3)c2n1" , give the reported EC50.
Return: 1.55 µM

Enquiry: For the compound shown here, "N#Cc1ccccc1CSc1nnc2c(n1)[nH]c1ccccc12" , give the reported EC50.
Return: > 30 µM

Enquiry: For the compound shown here, "N#Cc1cccc(CSc2nnc3c(n2)[nH]c2ccccc23)c1" , give the reported EC50.
Return: > 30 µM

---

Please go through the items and note down their t1/2.
Test system: Liver
Experiment: Half life in mouse liver microsomes in presence of NADPH by LC-MS/MS method
Format: ADME

Enquiry: For the molecule shown here, "N#Cc1ccccc1CSc1nnc2c3ccccc3n(CC3CC3)c2n1" , give the reported t1/2.
Return: < 5 min

Enquiry: For the molecule shown here, "N#Cc1ccccc1CSc1nnc2c(n1)[nH]c1cccc(Br)c12" , give the reported t1/2.
Return: 5 min

Enquiry: For the molecule shown here, "N#Cc1ccccc1CSc1nnc2c3ccccc3n(S(=O)(=O)c3ccccc3)c2n1" , give the reported t1/2.
Return: < 5 min

Enquiry: For the molecule shown here, "N#Cc1ccccc1CSc1nnc2c3ccccc3n(CC3CCCCC3)c2n1" , give the reported t1/2.
Return: < 5 min

Enquiry: For the molecule shown here, "N#Cc1ccccc1CSc1nnc2c(n1)[nH]c1ccccc12" , give the reported t1/2.
Return: 46 min

Enquiry: For the molecule shown here, "N#Cc1ccccc1CSc1nnc2c3ccccc3n(Cc3ccccc3)c2n1" , give the reported t1/2.
Return: < 5 min

Enquiry: For the molecule shown here, "N#Cc1ccccc1CSc1nnc2c3ccccc3n(C(=O)C3CC3)c2n1" , give the reported t1/2.
Return: < 5 min

Enquiry: For the molecule shown here, "CCCCn1c2ccccc2c2nnc(SCc3ccccc3C#N)nc21" , give the reported t1/2.
Return: < 5 min

Enquiry: For the molecule shown here, "O=[N+]([O-])c1ccccc1CSc1nnc2c(n1)[nH]c1ccccc12" , give the reported t1/2.
Return: 43 min

These entries and their values trace back to ChEMBL document CHEMBL3352243.
